The reported numbers originate from patent US11384079B2.

Molecular target: C5aR (Homo sapiens, UniProt P21730)
Construct: U937 cells are a monocytic cell line which express C5aR
Sequence (P21730 whole entry): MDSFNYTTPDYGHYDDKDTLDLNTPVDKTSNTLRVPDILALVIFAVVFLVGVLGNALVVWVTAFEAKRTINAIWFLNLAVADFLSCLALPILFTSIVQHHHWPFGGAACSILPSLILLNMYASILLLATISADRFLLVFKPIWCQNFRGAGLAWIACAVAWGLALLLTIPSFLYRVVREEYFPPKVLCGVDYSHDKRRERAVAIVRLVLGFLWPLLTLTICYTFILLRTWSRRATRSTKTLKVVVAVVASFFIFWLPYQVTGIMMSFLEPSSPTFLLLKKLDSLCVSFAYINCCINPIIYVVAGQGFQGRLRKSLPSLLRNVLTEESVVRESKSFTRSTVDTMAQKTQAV
Assay: chemotaxis assay (C5aR mediated migration)
Conditions: migration of U937 or neutrophil cells toward C5a (0.03 nM), 1.5 hours at 37° C., read-out: Mig IC50
Description: U937 cells are a monocytic cell line which express C5aR, and are available from ATCC (VA). […] Optionally, compounds may be further assayed for their ability to inhibit chemotaxis in cells. […] The chambers are incubated 1.5 hours at 37° C., and the number of cells in the lower chamber quantified either by direct cell counts in five high powered fields per well or by the CyQuant assay (Molecular Probes), a fluorescent dye method that measures nucleic acid content and microscopic observation.
pIC50: −log10 of the molar value.
Test readout: pIC50

Use the examples below as a reference point.
CCc1cccc(CC)c1-n1nc2c(c1-c1nccc3[nH]ncc13)CN(c1ncc(C(F)(F)F)cn1)CC2	7.30 to 8.30
Cc1cccc(C)c1-n1nc2c(c1-c1c(F)cc(C)c3[nH]ccc13)CN(c1ncc(C(F)(F)F)cn1)CC2	> 8.30
CCc1cccc(CC)c1-n1nc2c(c1-c1nccc3[nH]ccc13)CN(c1ncc(C(F)(F)F)cn1)CC2	7.30 to 8.30
CCc1cccc(CC)c1-n1nc2c(c1-c1cc(F)c3[nH]ccc3c1)CN(c1ncc(C(F)(F)F)cc1F)CC2	7.30 to 8.30
CCc1cccc(CC)c1-n1nc2c(c1-c1c(F)cc(Cl)c3[nH]ccc13)CN(c1ncc(CN3CCCC3)cn1)CC2	7.30 to 8.30

Query: pIC50; subject: Cc1cccc(C)c1-n1nc2c(c1-c1ccc(Cl)c3[nH]ccc13)CN(c1ncc(C(F)(F)F)cn1)CC2
Reply: > 8.30

Query: Param item = Cc1cccc(OCC(C)C)c1-n1nc2c(c1-c1cccc3[nH]ccc13)CN(Cc1ccccc1C(F)(F)F)CC2 ; retrieve measured pIC50.
Reply: 7.30 to 8.30

Query: Look up pIC50 for this compound: CCc1cccc(CC)c1-n1nc2c(c1-c1cc(F)c(OC)c3[nH]ncc13)CN(c1ncc(C(F)(F)F)cc1F)CC2
Reply: > 8.30

Query: Requested field: pIC50. Item: CCc1cccc(CC)c1-n1nc2c(c1-c1ccc(Cl)c3[nH]ccc13)CN(c1ncc(C(C)C)cn1)CC2 [Example 1.167]
Reply: > 8.30

Query: # pIC50 lookup, item CCc1cccc(CC)c1-n1nc2c(c1-c1ccc(Cl)c3[nH]cnc13)CN(c1ncc(C(F)(F)F)cn1)CC2 [Example 1.035]
Reply: > 8.30

Query: Look up pIC50: CCc1cccc(CC)c1-n1nc2c(c1-c1ccc(Cl)c3[nH]ccc13)CN(c1ncc(C(C)C)cc1F)CC2
Reply: > 8.30

Query: What value of measured pIC50 is listed for CCc1cccc(CC)c1-n1nc2c(c1-c1ccc(Cl)c3[nH]ccc13)CN(c1nccc(OC)n1)CC2 ?
Reply: > 8.30

----------
Molecular target: C5aR (Homo sapiens, UniProt P21730)
Construct: U937 cells are a monocytic cell line which express C5aR
Experiment: chemotaxis assay (C5aR mediated migration)
Settings: migration of U937 or neutrophil cells toward C5a (0.03 nM), 1.5 hours at 37° C., read-out: Mig IC50
Consider the following compounds and their measured IC50 readings.

CCc1cccc(CC)c1-n1nc2c(c1-c1cc(F)c(Cl)c3[nH]ccc13)CN(c1ncc(C(F)(F)F)cn1)CC2	< 5 nM

Query: Would you mind telling me what IC50 value was observed for Cc1cccc(OCC(C)C)c1-n1nc2c(c1-c1ccc3[nH]ccc3c1)CN(C(C)CC(F)(F)F)CC2 (stereo not shown) ?
Reply: 5 to 50 nM

Query: Would you mind telling me what IC50 value was observed for CCc1cccc(CC)c1-n1nc2c(c1-c1ccc(Cl)c3[nH]ccc13)CN(c1ncc(OC)cn1)CC2 ?
Reply: < 5 nM

Query: What does the record list as IC50 for CCc1cccc(CC)c1-n1nc2c(c1-c1cc(F)c(OC)c3[nH]c(F)nc13)CN(c1ncc(C(F)(F)F)cn1)CC2 ?
Reply: 5 to 50 nM

----------
Listed here: items and their measured IC50.
Target: C5aR (Homo sapiens)
Construct: U937 cells are a monocytic cell line which express C5aR
Assay: chemotaxis assay (C5aR mediated migration)
Settings: migration of U937 or neutrophil cells toward C5a (0.03 nM), 1.5 hours at 37° C., read-out: Mig IC50

Cc1cccc(C)c1-n1nc2c(c1-c1ccc(Cl)c3[nH]ccc13)CN(c1ncc(C(C)C)cn1)CC2	< 5 nM
CCc1cccc(CC)c1-n1nc2c(c1-c1ccc3[nH]ccc3c1)CN(Cc1cc(F)ccc1Cl)CC2	< 5 nM
CCc1cccc(CC)c1-n1nc2c(c1-c1c(F)cc(Cl)c3[nH]ccc13)CN(c1ccc(C(F)(F)F)cn1)CC2	< 5 nM
CCc1cccc(CC)c1-n1nc2c(c1-c1ccc(C)c3[nH]ccc13)CN(c1ncc(C(F)(F)F)cn1)CC2	< 5 nM
CCc1cccc(CC)c1-n1nc2c(c1-c1ccc(F)c3[nH]ccc13)CN(c1ncc(C(F)(F)F)cc1F)CC2	< 5 nM

Query: Report IC50 for CCc1cccc(CC)c1-n1nc2c(c1-c1cccc3[nH]ccc13)CN(c1ncc(C(F)(F)F)cn1)CC2 please.
Reply: 5 to 50 nM

Query: What value of IC50 has been reported for the following compound? CCc1cccc(CC)c1-n1nc2c(c1-c1cc(F)c(OC)c3[nH]ccc13)CN(c1ncc(C(F)(F)F)cn1)CC2
Reply: < 5 nM

Query: Give its IC50 value. Item: Cc1cccc(C)c1-n1nc2c(c1-c1cc3cc[nH]c3cc1F)CN(c1ncc(Cl)cc1Cl)CC2
Reply: 50 to 500 nM

Query: Give its IC50 value. Item: Cc1cccc(OCC(C)C)c1-n1nc2c(c1-c1ccc3[nH]ccc3c1)CN(c1nc(C(C)C)ns1)CC2
Reply: 5 to 50 nM

Query: # lookup: IC50 of CCc1cccc(CC)c1-n1nc2c(c1-c1cc(F)c(CO)c3[nH]ccc13)CN(c1ncc(C(F)(F)F)cc1F)CC2
Reply: < 5 nM

----------
# reported IC50; entries follow
Biological target: C5aR (Homo sapiens)
Construct: U937 cells are a monocytic cell line which express C5aR
Test: chemotaxis assay (C5aR mediated migration)
Details: migration of U937 or neutrophil cells toward C5a (0.03 nM), 1.5 hours at 37° C., read-out: Mig IC50

Guide cases for IC50, answers given:
Cc1cccc(OCC(C)C)c1-n1nc2c(c1-c1cccc3[nH]ccc13)CN(c1ncc(C(C)C)cc1F)CC2	5 to 50 nM
CCc1cccc(CC)c1-n1nc2c(c1-c1c(F)cc(C)c3[nH]ccc13)CN(c1ncc(C(C)C)cn1)CC2	< 5 nM
CCc1cccc(CC)c1-n1nc2c(c1-c1ccc3[nH]ccc3c1)CN(C(C)c1ccccc1C(F)(F)F)CC2 (stereo not shown)	5 to 50 nM

Query: Value lookup for IC50; key = CCc1cccc(CC)c1-n1nc2c(c1-c1ccc(Cl)c3[nH]ccc13)CN(c1ncc(C(C)C)cn1)CC2 [Example 1.164]
Reply: < 5 nM

Query: Name the reported IC50 value associated with the compound CCc1cccc(CC)c1-n1nc2c(c1-c1c(F)cc(CO)c3[nH]ccc13)CN(c1ccc(C(F)(F)F)cn1)CC2
Reply: < 5 nM

----------
Biological target: C5aR (Homo sapiens, UniProt P21730)
Construct: U937 cells are a monocytic cell line which express C5aR; host or cells: U937 cells (cAMP treated) or isolated neutrophils
Experiment: chemotaxis assay (C5aR mediated migration)
Assay type: cell-based
Conditions: migration of U937 or neutrophil cells toward C5a (0.03 nM), 1.5 hours at 37° C., read-out: Mig IC50
Experimental: U937 cells are a monocytic cell line which express C5aR, and are available from ATCC (VA). […] Optionally, compounds may be further assayed for their ability to inhibit chemotaxis in cells. […] The chambers are incubated 1.5 hours at 37° C., and the number of cells in the lower chamber quantified either by direct cell counts in five high powered fields per well or by the CyQuant assay (Molecular Probes), a fluorescent dye method that measures nucleic acid content and microscopic observation.
pIC50: −log10 of the molar value.
Here the recorded pIC50 is given for each entry.

Solved entries:
CCc1cccc(CC)c1-n1nc2c(c1-c1ccc3[nH]ccc3n1)CN(c1ncc(C(F)(F)F)cn1)CC2	< 6.30
CCc1cccc(CC)c1-n1nc2c(c1-c1ccc3[nH]ccc3c1)CN(c1ncc(C(F)(F)F)cn1)CC2	7.30 to 8.30
CCc1cccc(CC)c1-n1nc2c(c1-c1cc(F)c(OC)c3[nH]cc(Cl)c13)CN(c1ncc(C(F)(F)F)cn1)CC2	> 8.30
Cc1cccc(OCC(C)C)c1-n1nc2c(c1-c1cc(F)c3[nH]ccc3c1)CN(c1ncc(C(F)(F)F)cc1F)CC2	> 8.30
Cc1cccc(C)c1-n1nc2c(c1-c1ccc(Cl)c3[nH]ccc13)CN(c1ncc(C(F)(F)F)cc1F)CC2	7.30 to 8.30

Query: Please look up its pIC50: CCc1cccc(CC)c1-n1nc2c(c1-c1cc(F)c(OC)c3[nH]c(Cl)nc13)CN(c1ncc(C(F)(F)F)cn1)CC2
Reply: 6.30 to 7.30

Query: Find the recorded pIC50 belonging to Cc1cccc(C)c1-n1nc2c(c1-c1ccc3[nH]ccc3c1)CN(C(=O)OC(C)(C)C)CC2 and report it.
Reply: 7.30 to 8.30

Query: Give the measured pIC50 of Cc1cccc(C)c1-n1nc2c(c1-c1c(F)cc(C)c3[nH]ccc13)CN(c1ncc(Cl)cc1F)CC2 .
Reply: 7.30 to 8.30

Query: Which measured pIC50 value corresponds to Cc1cccc(OCC(C)C)c1-n1nc2c(c1-c1cccc3[nH]ccc13)CN(Cc1cc(Cl)ccc1C(F)(F)F)CC2 ?
Reply: 7.30 to 8.30

Query: Reported pIC50, compound CCc1cccc(CC)c1-n1nc2c(c1-c1ccc(Cl)c3[nH]ccc13)CN(c1nccc(N)n1)CC2 : ____
Reply: 6.30 to 7.30

Query: What value of measured pIC50 is listed for CCc1cccc(CC)c1-n1nc2c(c1-c1ccc(Cl)c3[nH]ncc13)CN(c1ncc(C(F)(F)F)cc1F)CC2 ?
Reply: 7.30 to 8.30

Query: Suppose we examine the compound Cc1cccc(C)c1-n1nc2c(c1-c1ccc(F)c3[nH]cc(Cl)c13)CN(c1ncc(C(F)(F)F)cc1F)CC2 ; what pIC50 value has been reported?
Reply: 6.30 to 7.30

Query: Any idea what pIC50 was measured for Cc1cccc(C)c1-n1nc2c(c1-c1c(F)cc(C)c3[nH]ccc13)CN(c1ncc(C(F)(F)F)cc1F)CC2 ?
Reply: > 8.30

Query: I have this compound here, CCc1cccc(CC)c1-n1nc2c(c1-c1c(F)cc(C)c3[nH]ccc13)CN(c1ccc(C(F)(F)F)cn1)CC2 , and I need its recorded pIC50.
Reply: > 8.30

Query: Please give the measured pIC50 for this compound: Cc1cccc(C)c1-n1nc2c(c1-c1ccc3[nH]ccc3c1)CN(CC(C)(C)C)CC2
Reply: 7.30 to 8.30

Query: Recorded pIC50 of Cc1cccc(OCC(C)C)c1-n1nc2c(c1-c1ccc3cc[nH]c3c1)CN(CC(C)(C)C)CC2 , please.
Reply: 6.30 to 7.30

Query: Would you mind telling me what pIC50 value was observed for CCc1cccc(CC)c1-n1nc2c(c1-c1cc(F)c(OC)c3[nH]ccc13)CN(c1ncc(C3CC3)cn1)CC2 ?
Reply: > 8.30

Query: Need pIC50 of C=C(C)c1nsc(N2CCc3nn(-c4c(C)cccc4OCC(C)C)c(-c4ccc5[nH]ccc5c4)c3C2)n1 , thanks.
Reply: 7.30 to 8.30

Query: # pIC50 lookup, item CCc1cccc(CC)c1-n1nc2c(c1-c1ccc(F)c3[nH]ccc13)CN(c1ncc(C)cn1)CC2
Reply: > 8.30

Query: I am curious: what pIC50 value has been reported for CCc1cccc(CC)c1-n1nc2c(c1-c1ccc(F)c3[nH]ccc13)CN(c1ncc(C(C)C)cc1F)CC2 ?
Reply: > 8.30

Query: Return reported pIC50; argument: COc1cccc(F)c1-n1nc2c(c1-c1cc(F)c(OC)c3[nH]ccc13)CN(c1ncc(C(F)(F)F)cn1)CC2
Reply: 6.30 to 7.30

Query: # query: pIC50 of entry Cc1cccc(OCC(C)C)c1-n1nc2c(c1-c1ccc3[nH]ccc3c1)CN(C(=O)OC(C)(C)C)CC2
Reply: 7.30 to 8.30

Query: Recorded pIC50 for CCc1cccc(CC)c1-n1nc2c(c1-c1ncc(C)c3[nH]ccc13)CN(c1ncc(C(F)(F)F)cn1)CC2 , please?
Reply: > 8.30

Query: Request the reported pIC50 associated with CCc1cccc(CC)c1-n1nc2c(c1-c1ncnc3[nH]ccc13)CN(c1ncc(C(F)(F)F)cn1)CC2
Reply: 7.30 to 8.30

Query: Value lookup for pIC50; key = CCc1cccc(CC)c1-n1nc2c(c1-c1ccc(C)c3[nH]ccc13)CN(c1ncc(C(C)C)cc1F)CC2
Reply: > 8.30

Query: May I ask what pIC50 has been recorded for CCc1cccc(CC)c1-n1nc2c(c1-c1c(F)cc(Cl)c3[nH]ccc13)CN(c1ccc(C(C)C)cn1)CC2 ?
Reply: > 8.30

Query: What value of measured pIC50 is listed for CCc1cccc(CC)c1-n1nc2c(c1-c1ccc(Cl)c3[nH]ccc13)CN(c1ncc(C)cn1)CC2 ?
Reply: > 8.30

Query: I have this compound here, CCc1cccc(CC)c1-n1nc2c(c1-c1ccc(Cl)c3[nH]c(C)nc13)CN(c1ncc(C(F)(F)F)cn1)CC2 , and I need its recorded pIC50.
Reply: 7.30 to 8.30
